Attribution: patent US10538495B2

system: indoleamine 2,3-dioxygenase (IDO1) (Homo sapiens, UniProt P14902)
Sequence (P14902 whole entry): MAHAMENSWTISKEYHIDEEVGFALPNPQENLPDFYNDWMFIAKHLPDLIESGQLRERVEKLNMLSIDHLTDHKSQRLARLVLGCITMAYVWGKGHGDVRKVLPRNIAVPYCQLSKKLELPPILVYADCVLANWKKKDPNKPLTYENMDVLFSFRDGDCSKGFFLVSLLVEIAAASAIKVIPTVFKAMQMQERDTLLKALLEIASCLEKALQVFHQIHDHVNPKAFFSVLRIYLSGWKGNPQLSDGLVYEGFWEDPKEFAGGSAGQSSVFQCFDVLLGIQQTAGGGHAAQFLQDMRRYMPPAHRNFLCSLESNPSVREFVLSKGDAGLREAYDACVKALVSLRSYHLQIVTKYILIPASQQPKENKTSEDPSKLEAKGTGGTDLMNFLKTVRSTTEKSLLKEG
assay-info: HeLa IDOi assay (kynurenine by mass spectrometry)
Type: cell-based
Set-up: human epithelial HeLa cells (CCL-2; host or cells: HeLa cells stimulated with human IFN-γ
measurement-setup: IFN-γ stimulated HeLa cells, 2 days, kynurenine detected by mass spectrometry; read-out: HeLa pIC50 (converted)
property-measured: IC50 (nM)
One number for each entry, in nM.

Request: Given Cc1ccc(CC(=O)Nc2cc(-c3ccccc3-c3nnn(C)n3)ccc2SC(C)(C)C)cc1 [Example 61] , state its recorded IC50.
Result: 631

Would you mind giving IC50 for every compound in the list below?
1. Cc1ccc(CC(=O)Nc2cc(-c3ccccc3-c3nn[nH]n3)ccc2SC(C)(C)C)cc1 [Example 1]
2. CC(C)(C)Sc1ccc(-c2ccccc2-c2nn[nH]n2)cc1NC(=O)CC1CC1 [Example 17]

Result:
1: 15.8; 2: 2510
